Data provenance is patent US20090005257A1.

molecular target: T1, human serum albumin (human, UniProt P02768 25-609); assay: phage ELISA on HSA, heated 80 C 10 min against unheated
T1 construct: also called HSA
T1 sequence (P02768 25-609 limits assumed): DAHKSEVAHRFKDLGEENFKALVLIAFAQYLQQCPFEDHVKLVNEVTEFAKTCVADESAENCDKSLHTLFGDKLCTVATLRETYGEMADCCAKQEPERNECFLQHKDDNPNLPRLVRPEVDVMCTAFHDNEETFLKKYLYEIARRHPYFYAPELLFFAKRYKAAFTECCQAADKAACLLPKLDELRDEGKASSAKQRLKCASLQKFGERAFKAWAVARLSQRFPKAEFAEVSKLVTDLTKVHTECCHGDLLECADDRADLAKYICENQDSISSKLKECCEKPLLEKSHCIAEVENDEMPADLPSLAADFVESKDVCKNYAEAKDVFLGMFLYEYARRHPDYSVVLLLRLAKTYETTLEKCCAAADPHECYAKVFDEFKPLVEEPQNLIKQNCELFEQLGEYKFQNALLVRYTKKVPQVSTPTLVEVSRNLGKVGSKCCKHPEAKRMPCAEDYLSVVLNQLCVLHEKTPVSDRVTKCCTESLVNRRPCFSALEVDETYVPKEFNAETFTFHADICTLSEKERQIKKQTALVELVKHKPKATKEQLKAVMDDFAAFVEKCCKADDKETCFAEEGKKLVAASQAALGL
Reported Refoldability (HSA binding retained after heating) is given for each of the following binders.
Measured endpoint: Refoldability (HSA binding retained after heating) (%)

- Binder: "anti-HSA VH clone #6 (other, As clone #1) VH: EVQLLESGGGLVQPGGSLRLSCAASGFTFHRYSMSWVRQAPGKGLEWVSTILPGGDVTYYADSVKGRFTISRDNSKNTLYLQMNSLRAEDTAVYYCAKQTPDYMFDYWGQGTLVTVSS"
  Relation operator: "<"
  Numeric value: 0.2
- Binder: "anti-HSA VH clone #4 (other, As clone #1) VH: EVQLLESGGGLVQPGGSLRLSCAASGFTFYDYNMSWVRQAPGKGLEWVSTITHTGGVTYYADSVKGRFTISRDNSKNTLYLQMNSLRAEDTAVYYCAKQNPSYQFDYWGQGTLVTVSS"
  Relation operator: "="
  Numeric value: 9.1
- Binder: "anti-HSA VH clone #1 (other, From library 4G (human VH3, DP47 germline gene + JH4 segment)) VH: EVQLLESGGGLVQPGGSLRLSCAASGFTFDLYDMSWVRQAPGKGLEWVSSIVNSGVRTYYADSVKGRFTISRDNSKNTLYLQMNSLRAEDTAVYYCAKLNQSYHWDFDYWGQGTLVTVSS"
  Relation operator: "="
  Numeric value: 1.5
- Binder: "anti-HSA VH clone #3 (other, As clone #1) VH: EVQLLESGGGLVQPGGSLRLSCAASGFTFSKYWMSWVRQAPGKGLEWVSSIDFMGPHTYYADSVKGRFTISRDNSKNTLYLQMNSLRAEDTAVYYCAKGRTSMLPMKGKFDYWGQGTLVTVSS"
  Relation operator: "="
  Numeric value: 0.55
